Measured values drawn from paper PMC6199744 for this set.

SYSTEM TESTED: HeLa cell extract proteins (Homo sapiens)
Construct: endogenous in cells; host or cells: HeLa cell extract
Format: binding
CONDITION DESCRIPTION: HeLa; protein EDC4
molecules and their reported fold changes relative to vehicle control
Just the number, please, no unit attached.

Check out these entries, answers already filled in.
# MOLECULE, DATA VALUE
measured = [
    ("NCCCNc1ccc(C(=O)NC(CCC(=O)O)C(=O)O)cc1 (stereo not drawn) [compound 7]", 0.97),
    ("CCCCCCOc1cccc(Cc2cnc(N)nc2N)c1 [compound 2]", 1.12),
    ("Nc1nc2c(c(=O)[nH]1)N(C=O)C(CNc1ccc(C(=O)N[C@@H](CCC(=O)O)C(=O)O)cc1)CN2 (stereo partly drawn) [LEU, leucovorin]", 1.03),
    ("NCCOCCOCC(=O)Nc1nc2ncc(CNc3ccc(C(=O)NC(CCC(=O)O)C(=O)O)cc3)nc2c(=O)[nH]1 (stereo not drawn) [compound 6]", 1.03),
    ("CCCCCCOc1ccc(Cc2cnc(N)nc2N)cc1 [compound 1]", 0.87),
]

Moving on to another molecule below.
Answer with the recorded fold changes relative to vehicle control of Nc1nc2cccc(-c3ccccc3)c2n1Cc1ccc(Cl)c(Cl)c1 [compound 3] only. 0.98

----------
SYSTEM TESTED: HeLa cell extract proteins (Homo sapiens, UniProt Q9C0E2)
Construct: endogenous in cells; host or cells: HeLa cell extract
Sequence (Q9C0E2 whole entry): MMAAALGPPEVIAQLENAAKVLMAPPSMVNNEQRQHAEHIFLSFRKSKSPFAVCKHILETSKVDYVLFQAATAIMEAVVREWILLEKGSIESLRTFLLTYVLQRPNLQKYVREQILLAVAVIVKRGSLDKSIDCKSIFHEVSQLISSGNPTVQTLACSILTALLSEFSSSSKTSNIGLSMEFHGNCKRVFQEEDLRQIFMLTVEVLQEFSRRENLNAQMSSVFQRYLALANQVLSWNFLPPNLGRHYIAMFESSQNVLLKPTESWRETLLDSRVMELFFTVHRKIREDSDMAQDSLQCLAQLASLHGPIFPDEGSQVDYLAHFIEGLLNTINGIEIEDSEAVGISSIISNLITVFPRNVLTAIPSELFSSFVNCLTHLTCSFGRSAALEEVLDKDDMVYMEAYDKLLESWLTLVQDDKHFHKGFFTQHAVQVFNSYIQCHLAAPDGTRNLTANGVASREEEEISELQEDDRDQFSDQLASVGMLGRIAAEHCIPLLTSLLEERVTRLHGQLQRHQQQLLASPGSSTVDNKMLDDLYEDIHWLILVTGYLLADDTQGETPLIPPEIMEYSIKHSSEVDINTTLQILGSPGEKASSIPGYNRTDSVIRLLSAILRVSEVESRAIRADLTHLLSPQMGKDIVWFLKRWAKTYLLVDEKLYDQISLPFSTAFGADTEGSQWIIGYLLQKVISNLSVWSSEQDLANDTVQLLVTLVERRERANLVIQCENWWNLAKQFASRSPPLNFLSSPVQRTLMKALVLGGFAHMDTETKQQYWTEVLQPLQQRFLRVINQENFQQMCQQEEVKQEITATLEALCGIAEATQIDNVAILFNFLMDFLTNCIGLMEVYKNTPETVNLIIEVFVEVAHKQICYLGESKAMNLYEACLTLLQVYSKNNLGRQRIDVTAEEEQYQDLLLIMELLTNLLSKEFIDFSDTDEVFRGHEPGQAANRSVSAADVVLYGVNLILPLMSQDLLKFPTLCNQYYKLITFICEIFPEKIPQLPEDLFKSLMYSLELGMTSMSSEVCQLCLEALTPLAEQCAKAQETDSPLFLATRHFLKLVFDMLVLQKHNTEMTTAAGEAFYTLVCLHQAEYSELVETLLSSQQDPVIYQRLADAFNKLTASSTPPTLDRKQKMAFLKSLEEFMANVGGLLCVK
Assay type: binding
CONDITION DESCRIPTION: HeLa; protein XPO4
MEASURED QUANTITY: fold changes relative to vehicle control
No unit in the answer, please; the number alone is enough.

Before answering, review these 4 worked examples.
# MOLECULE, fold changes relative to vehicle control
measured = [
    ("Nc1nc2cccc(-c3ccccc3)c2n1Cc1ccc(Cl)c(Cl)c1", 1.07),
    ("CCCCCCOc1cccc(Cc2cnc(N)nc2N)c1", 1.08),
    ("Nc1nc2c(c(=O)[nH]1)N(C=O)C(CNc1ccc(C(=O)N[C@@H](CCC(=O)O)C(=O)O)cc1)CN2 (stereo partly drawn)", 0.92),
    ("NCCCNc1ccc(C(=O)NC(CCC(=O)O)C(=O)O)cc1 (stereo not drawn)", 1),
]

// Input: NCCOCCOCC(=O)Nc1nc2ncc(CNc3ccc(C(=O)NC(CCC(=O)O)C(=O)O)cc3)nc2c(=O)[nH]1 (stereo not drawn) . Output its fold changes relative to vehicle control only. 0.94

Using the record for CCCCCCOc1ccc(Cc2cnc(N)nc2N)cc1 , state its measured fold changes relative to vehicle control. 0.91

----------
SYSTEM TESTED: HeLa cell extract proteins (Homo sapiens)
Construct: endogenous in cells; host or cells: HeLa cell extract
Type: binding
CONDITION DESCRIPTION: HeLa; protein MTHFD2L
MEASURED QUANTITY: fold changes relative to vehicle control

Below, each entry is followed by its recorded fold changes relative to vehicle control result.
# COMPOUND, SYSTEM TESTED, fold changes relative to vehicle control
rows = [
    ("Nc1nc2cccc(-c3ccccc3)c2n1Cc1ccc(Cl)c(Cl)c1 [compound 3]", "HeLa cell extract proteins (Homo sapiens)", 1.07),
    ("NCCCNc1ccc(C(=O)NC(CCC(=O)O)C(=O)O)cc1 (stereo not drawn) [compound 7]", "HeLa cell extract proteins (Homo sapiens)", 1),
    ("Nc1nc2c(c(=O)[nH]1)N(C=O)C(CNc1ccc(C(=O)N[C@@H](CCC(=O)O)C(=O)O)cc1)CN2 (stereo partly drawn) [LEU, leucovorin]", "HeLa cell extract proteins (Homo sapiens)", 0.9),
    ("NCCOCCOCC(=O)Nc1nc2ncc(CNc3ccc(C(=O)NC(CCC(=O)O)C(=O)O)cc3)nc2c(=O)[nH]1 (stereo not drawn) [compound 6]", "HeLa cell extract proteins (Homo sapiens)", 0.97),
    ("CCCCCCOc1ccc(Cc2cnc(N)nc2N)cc1 [compound 1]", "HeLa cell extract proteins (Homo sapiens)", 0.3),
]

State fold changes relative to vehicle control (HeLa cell extract proteins (Homo sapiens)) of CCCCCCOc1cccc(Cc2cnc(N)nc2N)c1 [compound 2] . 0.89

----------
Each entry below lists one item and its recorded fold changes relative to vehicle control value.
SYSTEM TESTED: HeLa cell extract proteins (Homo sapiens)
Construct: endogenous in cells; host or cells: HeLa cell extract
Format: binding
CONDITION DESCRIPTION: protein TRAP1; HeLa
Please give the numeric answer without any surrounding text.

Worked cases, answers included:
# COMPOUND, MEASURED QUANTITY, DATA VALUE
records = [
    ("NCCCNc1ccc(C(=O)NC(CCC(=O)O)C(=O)O)cc1 (stereo not drawn)", "fold changes relative to vehicle control", 1.01),
    ("NCCOCCOCC(=O)Nc1nc2ncc(CNc3ccc(C(=O)NC(CCC(=O)O)C(=O)O)cc3)nc2c(=O)[nH]1 (stereo not drawn)", "fold changes relative to vehicle control", 1.2),
    ("Nc1nc2cccc(-c3ccccc3)c2n1Cc1ccc(Cl)c(Cl)c1", "fold changes relative to vehicle control", 1.06),
    ("CCCCCCOc1ccc(Cc2cnc(N)nc2N)cc1", "fold changes relative to vehicle control", 1.27),
    ("Nc1nc2c(c(=O)[nH]1)N(C=O)C(CNc1ccc(C(=O)N[C@@H](CCC(=O)O)C(=O)O)cc1)CN2 (stereo partly drawn)", "fold changes relative to vehicle control", 0.95),
]

Report the value of fold changes relative to vehicle control obtained on HeLa cell extract proteins (Homo sapiens) for CCCCCCOc1cccc(Cc2cnc(N)nc2N)c1 . 1.77

----------
SYSTEM TESTED: HeLa cell extract proteins (Homo sapiens, UniProt Q08209)
Construct: endogenous in cells; host or cells: HeLa cell extract
Type: binding
CONDITION DESCRIPTION: HeLa; protein PPP3CA
MEASURED QUANTITY: fold changes relative to vehicle control
Respond numerically, and do not add a unit to the figure.

In the examples that follow, each entry is paired with its recorded fold changes relative to vehicle control.
# COMPOUND, DATA VALUE
records = [
    ("Nc1nc2cccc(-c3ccccc3)c2n1Cc1ccc(Cl)c(Cl)c1 [compound 3]", 1.03),
    ("NCCOCCOCC(=O)Nc1nc2ncc(CNc3ccc(C(=O)NC(CCC(=O)O)C(=O)O)cc3)nc2c(=O)[nH]1 (stereo not shown) [compound 6]", 0.95),
]

Input Nc1nc2c(c(=O)[nH]1)N(C=O)C(CNc1ccc(C(=O)N[C@@H](CCC(=O)O)C(=O)O)cc1)CN2 (stereo partly shown) [LEU, leucovorin] , output reported fold changes relative to vehicle control. 0.97

Tell me fold changes relative to vehicle control reported for NCCCNc1ccc(C(=O)NC(CCC(=O)O)C(=O)O)cc1 (stereo not shown) [compound 7] 0.85

----------
SYSTEM TESTED: HeLa cell extract proteins (Homo sapiens)
Construct: endogenous in cells; host or cells: HeLa cell extract
Type: binding
CONDITION DESCRIPTION: protein PSMD2; HeLa
Here the recorded fold changes relative to vehicle control is given for each entry.
# print the numeric value only

Examples from the recorded data:
# MOLECULE, fold changes relative to vehicle control
measured = [
    ("CCCCCCOc1ccc(Cc2cnc(N)nc2N)cc1 [compound 1]", 0.98),
    ("NCCCNc1ccc(C(=O)NC(CCC(=O)O)C(=O)O)cc1 (stereo not shown) [compound 7]", 0.99),
    ("Nc1nc2cccc(-c3ccccc3)c2n1Cc1ccc(Cl)c(Cl)c1 [compound 3]", 1.01),
]

Please list fold changes relative to vehicle control recorded for the molecule NCCOCCOCC(=O)Nc1nc2ncc(CNc3ccc(C(=O)NC(CCC(=O)O)C(=O)O)cc3)nc2c(=O)[nH]1 (stereo not shown) [compound 6] 1.01

----------
Measured fold change, listed per entry for reference.
SYSTEM TESTED: inosine-5′-monophosphate dehydrogenase (Tb927.10.16120) (Trypanosoma brucei brucei)
Sequence (P50098 whole entry): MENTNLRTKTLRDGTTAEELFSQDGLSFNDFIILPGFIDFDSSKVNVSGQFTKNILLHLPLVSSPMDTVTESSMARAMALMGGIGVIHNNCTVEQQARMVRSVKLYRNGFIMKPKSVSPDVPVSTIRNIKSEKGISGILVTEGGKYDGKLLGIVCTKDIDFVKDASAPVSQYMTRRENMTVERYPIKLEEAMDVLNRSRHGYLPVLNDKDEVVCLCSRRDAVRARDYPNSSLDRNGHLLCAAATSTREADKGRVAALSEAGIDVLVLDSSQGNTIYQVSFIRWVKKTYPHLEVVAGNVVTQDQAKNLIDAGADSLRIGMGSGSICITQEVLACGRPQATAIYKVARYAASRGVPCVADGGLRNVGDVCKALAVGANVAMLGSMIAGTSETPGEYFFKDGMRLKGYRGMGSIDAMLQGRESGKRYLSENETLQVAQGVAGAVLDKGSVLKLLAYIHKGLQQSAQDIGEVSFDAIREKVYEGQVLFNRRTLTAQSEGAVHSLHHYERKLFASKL
RUN DESCRIPTION: Multitargeted bead mixture competition
Assay type: binding, T. brucei
CONDITION DESCRIPTION: protein TB927.10.16120 INOSINE-5'-MONOPHOSPHATE DEHYDROGENASE; vehicle control = 1
Write the value as a bare number.

Previously resolved entries follow.
# MOLECULE, MEASURED QUANTITY, DATA VALUE
data = [
    ("NCCOCCOCC(=O)Nc1nc2ncc(CNc3ccc(C(=O)NC(CCC(=O)O)C(=O)O)cc3)nc2c(=O)[nH]1 (centres unmarked) [compound 6]", "fold change", 1),
    ("Nc1nc2[nH]cc(CCc3ccc(C(=O)N[C@@H](CCC(=O)O)C(=O)O)cc3)c2c(=O)[nH]1 [PTX, pemetrexed]", "fold change", 0.49),
]

Complete the entry with fold change for Nc1nc2cccc(-c3ccccc3)c2n1Cc1ccc(Cl)c(Cl)c1 [compound 3] 1

Respond only with fold change recorded for Nc1nc2c(c(=O)[nH]1)N(C=O)C(CNc1ccc(C(=O)N[C@@H](CCC(=O)O)C(=O)O)cc1)CN2 (some centres unmarked) [LEU, leucovorin] 1.11

Find the measured fold change of CCCCCCOc1ccc(Cc2cnc(N)nc2N)cc1 [compound 1] and report it. 0.93
